experimentalDetails: Pharmacokinetics alone and in combination, selumetinib + erlotinib arm
assayContext: human, plasma, oral, AUC(0–8), geometric mean; QD cohorts; dosed alone, selumetinib 50 mg cohort (N = 7); erlotinib 100 mg QD
In this section we review reported AUC(0-t) values for a set of compounds.
metricName: AUC(0-t) (µg·h/mL)

C#Cc1cccc(Nc2ncnc3cc(OCCOC)c(OCCOC)cc23)c1 [Erlotinib, reference compound] = 9.62
Cn1cnc2c(F)c(Nc3ccc(Br)cc3Cl)c(C(=O)NOCCO)cc21 = 1.9

====

In this section we review reported AUC(0-t) values for a set of compounds.
experimentalDetails: Pharmacokinetics alone and in combination, selumetinib + temsirolimus arm
Format: in vivo, human
assayContext: human, plasma, iv, geometric mean (% CV); dosed alone, selumetinib 50 mg cohort (N = 25); temsirolimus 25 mg IV; read-out: AUC(0–8)
metricName: AUC(0-t)

CO[C@H]1C[C@@H]2CC[C@@H](C)[C@@](O)(O2)C(=O)C(=O)N2CCCC[C@H]2C(=O)O[C@H]([C@H](C)C[C@@H]2CC[C@@H](O)[C@H](OC)C2)CC(=O)[C@H](C)/C=C(\C)[C@@H](O)[C@@H](OC)C(=O)[C@H](C)C[C@H](C)/C=C/C=C/C=C/1C [Sirolimus] = 341 ng·h/mL
CO[C@H]1C[C@@H]2CC[C@@H](C)[C@@](O)(O2)C(=O)C(=O)N2CCCC[C@H]2C(=O)O[C@H]([C@H](C)C[C@@H]2CC[C@@H](OC(=O)C(C)(CO)CO)[C@H](OC)C2)CC(=O)[C@H](C)/C=C(\C)[C@@H](O)[C@@H](OC)C(=O)[C@H](C)C[C@H](C)/C=C/C=C/C=C/1C [Temsirolimus] = 1580 ng·h/mL
Cn1cnc2c(F)c(Nc3ccc(Br)cc3Cl)c(C(=O)NOCCO)cc21 [Selumetinib] = 1840 ng·h/mL
